Catalogue of melting point readings, one per entry.

CCCC(=O)c1cnc2c(OCC)nccc2c1OS(C)(=O)=O; 115 to 116 °C
CCOC(=O)c1c(C(F)F)nc(C(F)(F)F)c(C(=O)OCC)c1Br; 37 to 43 °C
CCOC(=O)C(=CNc1ccc(C)cc1CO)C(=O)OCC; 92 to 95 °C
CSc1nc(=O)[nH]c(C)c1Br; 244 °C
Cc1cccc2c1Sc1ccccc1N2; 115 °C
CCOC(=O)CSCc1cccc(-c2c(CC(=O)Nc3ccc(F)cc3C(F)(F)F)c(=O)oc3cc(Cl)c(C)cc23)c1; 106 to 108 °C
COc1c(C)c(C)c(OC)c(C(CCCC(=O)O)c2cccnc2)c1C (stereo not given); 82 to 84 °C
O=C1CCCn2c(=O)[nH]c3cccc1c32; 235 °C

Q. Returns the measured melting point for the input compound. Input: CCOc1nn(Cc2ccc(Cl)cc2Cl)cc1CCCOc1cc(CCC(=O)O)n(-c2ccccc2)n1
A. 132 to 133 °C

Q. Returns the measured melting point for the input compound. Input: COc1cc2c(cc1C(F)(F)F)c(C(=O)Nc1cccnc1)cn2C
A. > 250 °C

* * *

Catalogue of melting point readings, one per entry.

C=CCc1cc(COC(=O)C(C)(C)C)ccc1C#CC1(O)CN2CCC1CC2 (centres undefined); 73 °C
CC1CC(=O)NN=C1c1ccc(NC(=O)c2ccccc2O)cc1 (centres undefined); 218 to 220 °C

Q. Returns the measured melting point for the input compound. Input: CC1(C)C(=O)Nc2cc(C(=O)Nc3cccc(N)c3)ccc21
A. 244 to 245 °C

Q. Returns the measured melting point for the input compound. Input: CC(C)(C)c1cc2c(c(C(C)(C)C)c1)OP(Cl)Oc1c(cc(C(C)(C)C)cc1C(C)(C)C)C2
A. 227 to 230 °C

Q. Returns the measured melting point for the input compound. Input: O=C1CCc2c(Br)cccc2C1
A. 62 °C

Q. Returns the measured melting point for the input compound. Input: O=C(CCc1ccc(Br)cc1)Cn1ccnc1
A. 71 to 73 °C

Q. Returns the measured melting point for the input compound. Input: CCCCCS(=O)(=O)NC(=O)/C=C/c1ccc(OCCOC)cc1Oc1cc(C(F)(F)F)ccc1[N+](=O)[O-]
A. 164 to 165 °C

* * *

Catalogue of melting point readings, one per entry.

CCOC(=O)C1=C(N)NC2=C(C(=O)CCC2)C1c1ccccc1-c1ccccc1 (centres undefined); 248 °C
CNC(=O)NCCn1c(-c2ccc(CN3CCOCC3)cc2)csc1=Nc1ccc(F)c(C)c1; 142 to 145 °C
CCc1csc(-c2ccc3c(c2)C=C(C(=O)Nc2ccc(CN(C)C4CCOCC4)cc2)CCN3C)c1; 139 to 141 °C
CN(CCOC[C@@H]1CC(c2ccc(-c3ccc(N4C[C@H](Cn5ccnn5)OC4=O)cc3F)cn2)=NO1)CC(=O)O; 135 to 140 °C
Nc1ccc(S(=O)(=O)N2CCCC(c3ccc(Cl)c(C(F)(F)F)c3)=N2)cc1; 205 to 206 °C
CC(C)(C)C(O)c1ccc(Oc2ccccc2)cc1 (centres undefined); 79 to 80 °C
CCOC(=O)CNC(=O)N(O)C1CC(c2ccc(F)cc2)C1 (centres undefined); 130 to 132 °C
O=C(c1ccc(F)c(Br)c1)N1CCC(Br)C(c2ccccc2)=N1 (centres undefined); 147 to 148 °C

The record that follows has no melting point shown yet.
Q. Returns the measured melting point for the input molecule. Input: COc1ccc(-c2ccccn2)c(NC(=O)CC(C)N)c1 (centres undefined)
A. 185 to 188 °C

Ref: a melting point compilation (Tetko et al.; mined from patent text by program, amines drawn as free bases though some values may be those of a salt)
